- experimental_system: B-Raf kinase (UniProt P15056 448-723, limits assumed)
- Sequence (P15056 448-723 limits assumed): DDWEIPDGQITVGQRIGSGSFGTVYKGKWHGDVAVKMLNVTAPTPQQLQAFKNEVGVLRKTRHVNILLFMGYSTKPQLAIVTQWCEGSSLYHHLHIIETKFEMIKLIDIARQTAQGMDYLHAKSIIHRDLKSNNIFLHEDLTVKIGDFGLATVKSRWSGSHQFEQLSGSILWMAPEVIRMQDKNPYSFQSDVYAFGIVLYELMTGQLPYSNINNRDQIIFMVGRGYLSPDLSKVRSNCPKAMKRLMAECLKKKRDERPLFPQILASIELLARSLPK
- assay_name: binding affinity, Table 3 (method not given; the Methods describe fluorescence titration)
Bridges are numbered along the chain shown (N, C = ends). Where no end group is shown, it is not given here.
measurement_label: Kd (nM)

[
  {
    "binder": "KRHVAE (lactam 1-6) [SEQ ID NO: 48 (KRHVAE)]",
    "observed": 300
  }
]
